- System: HepG2
- Assay Overview: Cytotoxicity against human HepG2 cells after 24 hrs by neutral red uptake assay
- Assay type: cell-based
- Condition Set: HepG2, 24 h
Entries and their measured pIC50 follow.
Hey, just a heads up that pIC50 is the negative log base 10 of the concentration in molar.

Known results for compounds:
Entry under review: CC(C)c1cc2c3c(c1OC(=O)c1cccnc1)OC(=O)[C@@]31CCCC(C)(C)[C@@H]1CC2 . Reported pIC50? 3.58

Form field: reported pIC50 of CC(C)c1cc2c3c(c1OC(=O)CCl)OC(=O)[C@@]31CCCC(C)(C)[C@@H]1CC2 3.69

More entries:
Report pIC50 for CC(C)C(=O)Oc1c(C(C)C)cc2c3c1OC(=O)[C@@]31CCCC(C)(C)[C@@H]1CC2 please. 3.95

The reported numbers originate from ChEMBL document CHEMBL1157107.
